All figures here come from paper PMC11501026.

tested on: [3H]-ADMA transport across the blood-brain and blood-CSF barriers; test: self-inhibition, in situ perfusion: [^3H]-ADMA with 100 μM unlabelled ADMA; type: in vivo, mouse; conditions: male, Balb/c, mouse, supernatant, other: in situ brain perfusion, with unlabelled ADMA 100 µM, [3H] ADMA + [14C] Sucrose + 100uM un-labelled ADMA, 10 mins, Balb/c ♂, 5ml/min; individual mice; read-out: uptake, supernatant
Structures can show the parent of a compound that is named as a salt.
recorded_endpoint: Kp at 10 min, 62.5 nM
Give the figure by itself; no unit, no explanation.

[ask] Fill blank: measured Kp at 10 min, 62.5 nM of the compound CN(C)C(N)=NCCC[C@H](N)C(=O)O [ADMA, N^G,N^G-dimethylarginine dihydrochloride] is ____.
[reply] 0.047
